Give measured Phage binding ELISA signal, Anti-PSMA Fab for each item. Keep answers brief.
TARGET: T1, PSMA Fab (biotinylated (site not stated))
T1 construct: Biotinylated PSMA Fab captured on neutravidin plates in the phage ELISA; also called Anti-PSMA Fab; 006 PSMA Fab
ASSAY SUMMARY: clonal phage ELISA; biotinylated PSMA Fab on neutravidin plate; anti-M13 HRP detection; blocking buffer alone
Where no end group is shown, it is not given here.

Input: Please give the measured Phage binding ELISA signal, Anti-PSMA Fab for this binder: EAKWCIPNWMCEMA [Phage-2438]
Output: 1.31

Input: Please give the measured Phage binding ELISA signal, Anti-PSMA Fab for this binder: IEKWCTPPWMCLDH [Phage-2447]
Output: 1.29

Input: Please give the measured Phage binding ELISA signal, Anti-PSMA Fab for this binder: MPKWCTPSWMCAVQ (cysteine pairing not given here; also: displayed as fusion to phage pIII) [Phage-2439]
Output: 1.31

Input: Please give the measured Phage binding ELISA signal, Anti-PSMA Fab for this binder: EMNWCIPAWMCEGR [Phage-2437]
Output: 1.31
